- EXPERIMENTAL_TARGET: RIPK1 (Homo sapiens, UniProt Q13546)
- Construct: endogenous in cells; host or cells: HT-29 (KCLB 30038)
- Sequence (Q13546 whole entry): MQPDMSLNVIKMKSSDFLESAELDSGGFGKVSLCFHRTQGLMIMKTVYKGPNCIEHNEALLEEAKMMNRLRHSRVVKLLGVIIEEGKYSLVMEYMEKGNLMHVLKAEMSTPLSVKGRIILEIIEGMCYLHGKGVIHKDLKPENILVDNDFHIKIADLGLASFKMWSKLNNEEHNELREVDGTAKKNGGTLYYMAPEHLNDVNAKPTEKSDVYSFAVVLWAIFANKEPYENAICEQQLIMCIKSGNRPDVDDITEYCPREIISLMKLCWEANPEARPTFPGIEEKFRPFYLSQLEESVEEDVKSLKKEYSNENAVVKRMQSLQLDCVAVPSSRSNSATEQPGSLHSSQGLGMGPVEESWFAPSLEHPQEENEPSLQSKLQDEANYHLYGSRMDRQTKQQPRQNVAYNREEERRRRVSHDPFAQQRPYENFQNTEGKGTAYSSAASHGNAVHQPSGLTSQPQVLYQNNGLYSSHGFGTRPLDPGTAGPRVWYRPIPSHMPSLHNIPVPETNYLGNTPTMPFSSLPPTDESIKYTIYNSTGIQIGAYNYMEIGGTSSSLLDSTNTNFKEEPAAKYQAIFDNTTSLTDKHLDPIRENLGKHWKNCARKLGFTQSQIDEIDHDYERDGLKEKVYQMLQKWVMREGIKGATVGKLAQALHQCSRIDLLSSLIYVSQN
- EXPERIMENT_DESCRIPTION: Immunoblotting of TNFα induced phospho-RIPK1 (ser 166) levels
- Type: cell-based
- PROTOCOL_CONDITIONS: HMC3 cells; Z-VAD-FMK, human TNFα 20 ng/ml, SM-164 100 nM; 7 h, serum free media; read-out: Cell-base RIPK1 activity: phspho-RIPK1 (Ser166)
MEASURED_ENDPOINT: IC50

{"SMI": "Cc1noc(C)c1COc1ccc2c(c1)N(C)C(=O)[C@@H](NC(=O)n1cc(Cc3cccc(F)c3)cn1)CO2", "IC50": "< 10 nM"}
{"SMI": "CN1C(=O)[C@@H](NC(=O)n2cc(Cc3cccc(F)c3)cn2)COc2ccc(OCC(=O)N3CC[C@H](O)C3)cc21", "IC50": "< 10 nM"}
{"SMI": "CN1C(=O)[C@@H](NC(=O)n2cc(Cc3cccc(F)c3)cn2)COc2ccc(C(=O)N3CCCCC3)cc21", "IC50": "10 to 50 nM"}
{"SMI": "CN1C(=O)[C@@H](NC(=O)n2cc(Cc3cccc(F)c3)cn2)COc2ccc(OCCC(C)(C)O)cc21", "IC50": "< 10 nM"}
{"SMI": "CN1C(=O)[C@@H](NC(=O)n2cc(Cc3cccc(F)c3)cn2)COc2ccc(OCCCc3cccnc3)cc21", "IC50": "< 10 nM"}

Challenge: Could you tell me which IC50 is on file for `CN1C(=O)[C@@H](NC(=O)n2cc(Cc3cccc(F)c3)cn2)COc2ccc(OCC(=O)NC3CC3)cc21` ?
Response given: < 10 nM

Challenge: Could you tell me which IC50 is on file for `Cc1nnc(COc2ccc3c(c2)N(C)C(=O)[C@@H](NC(=O)n2cc(Cc4cccc(F)c4)cn2)CO3)o1` ?
Response given: 10 to 50 nM

* * *

Measured IC50 values are reported for all entries that follow.
- EXPERIMENTAL_TARGET: RIPK1 (Homo sapiens)
- Construct: endogenous in cells; host or cells: HT-29 (KCLB 30038)
- EXPERIMENT_DESCRIPTION: Cell-based necroptosis assay for RIPK1 activity (cell viability by CCK-8)
- PROTOCOL_CONDITIONS: HT-29 cells; Z-VAD-FMK 20 μM, human TNFα 10 ng/ml, SM-164 100 nM; 24 h; read-out: Cell-base RIPK1 activity: Necroptosis

Challenge: Fill in the recorded IC50 for this molecule, with RIPK1 (Homo sapiens) as test system: CN1C(=O)[C@@H](NC(=O)n2cc(Cc3cccc(F)c3)cn2)COc2ccc(C(=O)NOCC(C)(C)O)cc21 [Example 13]
Response given: 10 to 50 nM

Challenge: Fill in the recorded IC50 for this molecule, with RIPK1 (Homo sapiens) as test system: CN1C(=O)[C@@H](NC(=O)n2cc(Cc3cccc(F)c3)cn2)COc2ccc(OCc3cn(CC(C)(C)O)nn3)cc21 [Example 68]
Response given: < 10 nM

Challenge: Fill in the recorded IC50 for this molecule, with RIPK1 (Homo sapiens) as test system: CN1C(=O)[C@@H](NC(=O)n2cc(Cc3cccc(F)c3)cn2)COc2ccc(OCCCC(C)(C)O)cc21 [Example 26]
Response given: < 10 nM

Challenge: Fill in the recorded IC50 for this molecule, with RIPK1 (Homo sapiens) as test system: CC(C)CCCOc1ccc2c(c1)N(C)C(=O)[C@@H](NC(=O)n1cc(Cc3cccc(F)c3)cn1)CO2 [Example 15]
Response given: < 10 nM

Challenge: Fill in the recorded IC50 for this molecule, with RIPK1 (Homo sapiens) as test system: CN1C(=O)[C@@H](NC(=O)n2cc(Cc3cccc(F)c3)cn2)COc2ccc(OCCCC3(O)CCC3)cc21 [Example 28]
Response given: < 10 nM

Challenge: Fill in the recorded IC50 for this molecule, with RIPK1 (Homo sapiens) as test system: CN1CC[C@@H](Oc2ccc3c(c2)N(C)C(=O)[C@@H](NC(=O)n2cc(Cc4cccc(F)c4)cn2)CO3)C1 [Example 33]
Response given: 10 to 50 nM

Challenge: Fill in the recorded IC50 for this molecule, with RIPK1 (Homo sapiens) as test system: CN1C(=O)[C@@H](NC(=O)n2cc(Cc3cccc(F)c3)cn2)COc2ccc(OCC(O)c3ccncc3)cc21 (stereo partly shown) [Example 71]
Response given: < 10 nM

Challenge: Fill in the recorded IC50 for this molecule, with RIPK1 (Homo sapiens) as test system: CN1C(=O)[C@@H](NC(=O)n2cc(Cc3cccc(F)c3)cn2)COc2ccc(OCC(C)(C)O)cc21 [Example 20]
Response given: < 10 nM

Challenge: Fill in the recorded IC50 for this molecule, with RIPK1 (Homo sapiens) as test system: CN1C(=O)[C@@H](NC(=O)n2cc(Cc3cccc(F)c3)cn2)COc2ccc(OCc3nc(C(C)(C)O)cs3)cc21 [Example 66]
Response given: < 10 nM

Challenge: Fill in the recorded IC50 for this molecule, with RIPK1 (Homo sapiens) as test system: CN1C(=O)[C@@H](NC(=O)n2cc(Cc3cccc(F)c3)cn2)COc2ccc(OCCOCCO)cc21 [Example 19]
Response given: < 10 nM

Challenge: Fill in the recorded IC50 for this molecule, with RIPK1 (Homo sapiens) as test system: CN1C(=O)[C@@H](NC(=O)n2cc(Cc3cccc(F)c3)cn2)COc2ccc(OCC(=O)NC3CC3)cc21 [Example 51]
Response given: < 10 nM

Challenge: Fill in the recorded IC50 for this molecule, with RIPK1 (Homo sapiens) as test system: CN1C(=O)[C@@H](NC(=O)n2cc(Cc3cccc(F)c3)cn2)COc2ccc(OC(C)(C)C(=O)N3CCC(C)(O)CC3)cc21 [Example 42]
Response given: 10 to 50 nM
